Tested on: BT-549 breast
Experiment: NCI-60 one-dose screen, 48 h
Conditions: 10 µM unless noted
Compounds without any hit were thinned out: in the full panel of roughly 83,000, 20% have a hit. Calls of active or inactive are those of the source. How the source made its calls: active means growth percent below 10; inactive means the rest.
Write down one outcome, taken from active, inactive

molecule | discreteLabel
CC(C)Cc1ccc(C(C)C(=O)NCc2ccc(Cn3c(=O)sn(-c4ccc(Cl)cc4)c3=O)cc2)cc1 (centres undefined) | inactive

Lab log entry: Clc1ccc(N2N=C(c3cccc(Nc4ccncc4)c3)CC2c2ccccc2)cc1 (centres undefined) — outcome as called in the assay?
inactive

What outcome does the record of this test show for `Cc1ccc2[nH]c(=S)n(-c3ccc(S(=O)(=O)Nc4ccc(Cl)nn4)cc3)c(=O)c2c1` ?
inactive

Outcome logged for `C=C1C(=O)O[C@H]2[C@H]1CC/C(CNC(=O)/C=C/c1ccccc1F)=C\CC[C@@]1(C)O[C@@H]21` in this assay:
active

====

For each record, write down the corresponding growth.
Test system: IGROV1 ovarian
Assay: NCI-60 one-dose screen, 48 h (100 = growth as untreated, 0 = no growth, -100 = all killed)
Conditions: 10 µM unless noted
This is part of a sample that, as a whole, favours compounds with a hit. Of some 83,000 tested, about 20% had one in any assay.
Answers are plain numbers, in %.

compound | val
Cn1c(COC(=O)NCCN2CCOCC2)nc2c(N3CCOCC3)nc(-c3ccccc3)nc21 | -93.3
COc1cc(/C=C2\C(=O)N(Cc3ccc(Cl)cc3)c3ccccc32)cc(OC)c1OC | 9.22

Give one value of growth per listed compound.
1. CC(C)(C)OC(=O)N1C/C(=C\c2ccoc2)C(=O)/C(=C/c2ccoc2)C1
2. CCN1C(=O)N(CC)C2C1NN=c1s/c(=C3\C(=O)Nc4ccccc43)c(=O)n12 (stereo not drawn)
3. O=C(CN1CCOCC1)Nc1ccc2ncnc(Nc3ccc(OCc4cccc(F)c4)c(Cl)c3)c2c1
4. COc1ccc(-c2ncc(-c3ccccc3)[nH]2)cc1OC
5. CC[N+](CC)(CCCC(C)[N+]1(Cc2ccccc2)C(C)=CC=C1C)Cc1ccccc1 (stereo not drawn)
6. COc1cc2c(cc1[N+](=O)[O-])-c1ccc([N+](=O)[O-])cc1/C2=N\O
7. COc1cccc(-c2nc3occn3c2-c2ccnc(NCCCNS(=O)(=O)c3cccc(F)c3)n2)c1

1. 95.6
2. 35.2
3. 23.2
4. 119
5. 62.4
6. 97.3
7. 89

Hello, I would appreciate it if you could give growth for each entry below.
1. COc1cc(C2CC(c3cccc(Nc4ccncc4)c3)=NN2c2ccc(Cl)cc2)cc(OC)c1OC (stereo not drawn)
2. O=C(/C=C\c1ccc(OCCCCCC[P+](c2ccccc2)(c2ccccc2)c2ccccc2)cc1)c1ccc2c(c1)OCCO2
3. CC(=O)c1c(C)[nH]c(-c2nc3ccc(N4CCN(C)CC4)cc3[nH]2)c1-c1ccccc1
4. CC(C)Cc1ccc(C(C)C(=O)NCc2ccc(Cn3c(=O)sn(-c4ccc(Cl)cc4)c3=O)cc2)cc1 (stereo not drawn)

[4.16, 5.29, 23.8, 92.2]

====

System: NCI-H226 lung
Assay: NCI-60 one-dose screen, 48 h (100 = growth as untreated, 0 = no growth, -100 = all killed)
Details: 10 µM unless noted
About 83,000 compounds went through this panel and 20% of them were active in at least one assay; those are over-represented in the sample as a whole.
Respond with T for growth values of 40% and above, F for values below.

molecule | measuredTarget | discreteLabel
CCCCN(CCCC)CCc1c(C)cc(C)c(CCN(CCCC)CCCC)c1O | NCI-H226 lung | F
COc1cc2nnn3c4ncccc4c(N=O)c3c2cc1OC | NCI-H226 lung | T
C=CCn1c(SCC(=O)Nc2ccc(C(=O)/C=C/c3cc(OC)c(OC)c(OC)c3)cc2)nnc1-c1cc(OC)c(OC)c(OC)c1 | NCI-H226 lung | F
CCOC(=O)Oc1c(OC)cc(C(=O)O[C@@H]2C[C@@H]3CN4CCc5c([nH]c6cc(OC)ccc56)[C@H]4C[C@@H]3[C@H](C(=O)OC)[C@H]2OC)cc1OC | NCI-H226 lung | T
COc1cc(C2CC(c3cccc(Nc4ccncc4)c3)=NN2c2ccccc2)cc(OC)c1OC (configuration not stated) | NCI-H226 lung | T

Hi team, for `C#CC(=O)Nc1cccc(Nc2nc3c(c(NCc4ccccc4)n2)CCCC3)c1` , is the recorded growth at or above 40%?
F

Kindly determine if growth recorded for `Cn1c(COC(=O)NCCc2ccccn2)nc2c(N3CCOCC3)nc(Cl)nc21` is above or exactly 40%.
F

====

Tested on: CCRF-CEM leukemia
Test: NCI-60 one-dose screen, 48 h (100 = growth as untreated, 0 = no growth, -100 = all killed)
Settings: 10 µM unless noted
Compounds without any hit were thinned out: in the full panel of roughly 83,000, 20% have a hit.
// No strictly below 40% in growth; Yes otherwise

compound | discreteLabel
COc1ccc(NS(=O)(=O)c2ccc(C)cc2)c([N+](=O)[O-])c1 | Yes

Threshold query (growth >= 40%) on `CN1CCN(c2c(F)cc(NC3=C(Cl)C(=O)c4ncccc4C3=O)cc2F)CC1`
No

Textbook exercise: given the entry CC(C)C1C2=C(NCCN1C(=O)Cc1ccccc1)C(C)(C)N(Cc1ccccc1)C2=O (configuration not stated) , state whether its growth is greater than or equal to 40%.
Yes

Assess whether reported growth for `Cc1cc2nc(-c3ccccc3)c(-c3ccccc3)nc2cc1C` sits at 40% or higher.
Yes

Reported growth reaches at least 40% for `COc1ccc(NC(=O)c2sc3nc(C)c(C(=O)c4ccc(OC)cc4)cc3c2N)cc1` ?
No

In plain terms: is recorded growth at least 40% for `COC(=O)Nc1ccc(NC(=O)OC)cc1` ?
Yes

Kindly determine if growth recorded for Clc1ccc(N2N=C(c3cccc(Nc4ccncc4)c3)CC2c2ccc(Br)cc2)cc1 (configuration not stated) is above or exactly 40%.
No

# bool: growth of `Clc1nc(Cl)c2ncn(CCOCCn3cnc4c(Cl)nc(Cl)nc43)c2n1` >= 40%
No

Reported growth at or above 40%? `COc1ccc(-c2nc(N/N=C/c3cccc(Br)c3)nc(N3CCOCC3)c2C#N)cc1`
No

Reported growth reaches at least 40% for `COc1cc2nc(-c3ccc(-c4nn[nH]n4)cc3)[nH]c(=O)c2cc1OC` ?
Yes

Decide: growth of `Cn1c(COC(=O)NCCN2CCOCC2)nc2c(N3CCOCC3)nc(-c3ccccc3)nc21` >= 40%?
No

Could you verify whether the entry `COc1ccc(-c2cnnc3c(-c4cccc(C(F)(F)F)c4)cnn23)cc1` shows growth of no less than 40%?
Yes

====

Test system: NCI-H522 lung
Experiment: NCI-60 one-dose screen, 48 h (100 = growth as untreated, 0 = no growth, -100 = all killed)
Conditions: 10 µM unless noted
Compounds without any hit were thinned out: in the full panel of roughly 83,000, 20% have a hit.
Would you mind telling me the reported growth of each entry?
One number for each entry, in %.

Look over these answered cases.
compound | propertyMeasured | val
O=C(Nc1nc(-c2ccc(Br)cc2)cs1)c1cc(-c2ccc(Br)cc2)nc2ccc(Cl)cc12 | growth | 76.9
CC[C@@]12C=CCN3CC[C@]4(c5cc(NC(=O)COc6cc(OCC(=O)Nc7cc8c(cc7OC)N(C)[C@H]7[C@@](O)(C(=O)OC)[C@H](OC(C)=O)[C@]9(CC)C=CCN%10CC[C@]87[C@@H]%109)cc7oc(-c8ccccc8)cc(=O)c67)c(OC)cc5N(C)[C@@H]4[C@](O)(C(=O)OC)[C@H]1OC(C)=O)[C@H]32 | growth | -27.7
COc1cc2c(cc1[N+](=O)[O-])-c1ccc([N+](=O)[O-])cc1/C2=N\O | growth | 51.2
COc1ccccc1/C=N/NC1=NC2C(N1)N(C)C(=O)N2C (configuration not stated) | growth | 103
COc1cccc(C(Cc2ccccc2)Nc2ccccc2)c1OC (configuration not stated) | growth | 65.6
COc1cccc2c1C(=O)c1c(O)c3c(c(O)c1C2=O)C[C@@](O)(C(=O)CO)C[C@@H]3O[C@H]1C[C@H](N)[C@@H](O)[C@H](C)O1 | growth | -55.2

Now look at this entry.
So what's the measured growth for this one? `CCNNC(=O)[C@@H]1[C@H](c2cc(OC)c(OC)c(OC)c2)c2cc3c(cc2[C@H](O)[C@H]1CO)OCO3`
-18.7

====

Test system: NCI-H226 lung
Assay: NCI-60 one-dose screen, 48 h
Details: 10 µM unless noted
Experimental: Growth inhibition of the NCI-H226 human Non-Small Cell Lung tumor cell line is measured as a screen for anti-cancer activity. Cells are grown in 96 well plates and exposed to the test compound for 48 hours. Compounds are tested at a single concentration, which is 10^-5 M for most compounds. The reported endpoint is percent growth (GI% or GIPRCNT), where numbers from 0 - 100% represent growth inhibition, and numbers from -100% - 0 represent cell death. […]
About 83,000 compounds went through this panel and 20% of them were active in at least one assay; those are over-represented in the sample as a whole. Calls of active or inactive are those of the source. The calls were made as follows: active = growth percent below 10; inactive = the rest.
Pick one and only one: active, inactive

molecule | discreteLabel
S=c1[nH]cccc1-c1nnc2n1Nc1nc3ccccc3cc1CS2 | inactive

Hi team, can someone confirm the assay call for `O=C(OCc1nc2nc(Cl)nc(N3CCOCC3)c2[nH]1)n1ccnc1` ?
active

What did the test return for `COc1ccc2c(c1)c(CC(=O)NCCOCCOCC(=O)Nc1ccc(OC)c(C(N)=O)c1O)c(C)n2C(=O)c1ccc(Cl)cc1` ?
inactive

Dear colleague, could you share the recorded outcome for `CCCCCCCCCCCCCCCCCCOc1ccccc1N` when you have a moment?
inactive

How did this test come out for `CCCCCCCCCCCCCCCC(=O)OC[C@@]1(O)C[C@@]23CC[C@@H]4C(C)(C)[C@H](O)CC[C@@]4(C)[C@@H]2CC[C@H]1C3` ?
inactive

Recorded test outcome, item `COc1ccc(-c2nc(N/N=C/c3ccco3)nc(N3CCOCC3)c2C#N)cc1`
inactive

# outcome recorded in this test, key = Brc1ccc(C2CC(c3cccc(Nc4ccncc4)c3)=NN2c2ccccc2)cc1 (stereo not drawn)
inactive

Name the outcome recorded for `O=C(CSc1nc2sc3c(c2c(=O)n1Cc1ccccc1)CCCC3)N1CCN(c2ccccc2)CC1` in the assay.
inactive
